Entries and their metabolised at 0.5 h, 10 µM values follow.
Assay: Metabolic stability in human liver microsomes assessed as compound degradation at 10 uM measured after 30 mins by HPLC method
Format: ADME, Microsome
Details: read-out: Drug degradation
# unit: % | format: bare number

* CC(C)(C)NC(=O)[C@@H]1c2cc([N+](=O)[O-])ccc2N[C@@H](Cc2ccccc2)C(=O)N1Cc1ccccc1 | 50

Entry under review: `CC(C)(C)NC(=O)[C@H]1c2cc([N+](=O)[O-])ccc2N[C@@H](Cc2ccccc2)C(=O)N1Cc1ccccc1` . Reported metabolised at 0.5 h, 10 µM?
41
